- Tested on: FMOC22 (patient-derived mucinous ovarian cancer cells)
- ASSAY_COMMENT: drug sensitivity score (DSS3, normalised partial AUC of % inhibition dose-response) (DSS (score)); higher = more sensitive (stronger inhibition of viability); extreme values may be limits of the assay
- CONDITIONS: 72 h; library: FO5A; assay format: 2D, 384-well, CellTiter-Glo
ENDPOINT_LABEL: drug sensitivity score
Answer with the value's number alone.

Solved cases below.
O=C(O)C1(C(=O)O)CCC1.[NH2-].[NH2-].[Pt+2]	2.8
CN(C)c1cc2c(cc1Sc1nc3c(N)nccc3n1CCNCC(C)(C)C)OCO2	8.9
CO[C@@H]1[C@H](N(C)C(=O)c2ccccc2)C[C@H]2O[C@]1(C)n1c3ccccc3c3c4c(c5c6ccccc6n2c5c31)C(=O)NC4	4.5
CC(C)C[C@H](NC(=O)[C@H](Cc1ccccc1)NC(=O)c1cnccn1)B(O)O	28.4

Query: What drug sensitivity score value was documented for this compound, `CCCN(CCC)C(=O)C1=Cc2ccc(-c3ccc(C(=O)N4CCCC4)cc3)cc2N=C(N)C1` ?
Response: 0

Query: Item: `CO[C@H]1CC[C@H](N2C(=O)CNc3ncc(-c4ccc(C(C)(C)O)nc4)nc32)CC1`
Response: 3

Query: Item: `Cc1cc(-c2nc(-c3ccc(OC(F)(F)F)cc3)no2)nn1Cc1ccnc(N2CCN(C3CC3)CC2)c1`
Response: 6

Query: Item: `Cc1sc2c(c1C)C(c1ccc(Cl)cc1)=N[C@@H](CC(=O)Nc1ccc(O)cc1)c1nnc(C)n1-2`
Response: 6.7

Query: Item: `O=c1[nH]cc(F)c(=O)[nH]1`
Response: 2.2

Query: Item: `O=C(Nc1cnn2ccc(N3CCC[C@@H]3c3cc(F)ccc3F)nc12)N1CC[C@H](O)C1`
Response: 0

Query: Item: CC(O)c1cc(C(=O)N[C@@H](C)Cn2ccc(-c3ccc(C#N)c(Cl)c3)n2)n[nH]1 (stereo partly specified)
Response: 0

Query: Item: `O=C(NOCCO)c1ccc2cncn2c1Nc1ccc(I)cc1F`
Response: 7.2

Query: Item: `Cc1ccc(F)c(NC(=O)Nc2ccc(-c3cccc4[nH]nc(N)c34)cc2)c1`
Response: 0

Query: Item: `CCN1CCN(c2ccc(Nc3cc(N(C)C(=O)Nc4c(Cl)c(OC)cc(OC)c4Cl)ncn3)cc2)CC1`
Response: 0

Query: Item: `CC1(C)C(C(=O)Nc2ccc(S(=O)(=O)c3ccc(NC(=O)C4C(C)(C)C4(C)C)cc3)cc2)C1(C)C`
Response: 0

Query: Item: CC(O)(CS(=O)(=O)c1ccc(F)cc1)C(=O)Nc1ccc(C#N)c(C(F)(F)F)c1 (stereo unspecified) [Bicalutamide]
Response: 0
